molecular target: hERG (Homo sapiens (Human)); test: hERG Ion Channel binding assay (3H astemizole displacement); settings: human, membranes of HEK293 cells stably expressing hERG, pH 7.4, probe 3H astemizole (1.5 nM); Tested at 25 μM; displacement of 3H astemizole, hERG-HEK293 membranes
Sequence (Q12809 whole entry): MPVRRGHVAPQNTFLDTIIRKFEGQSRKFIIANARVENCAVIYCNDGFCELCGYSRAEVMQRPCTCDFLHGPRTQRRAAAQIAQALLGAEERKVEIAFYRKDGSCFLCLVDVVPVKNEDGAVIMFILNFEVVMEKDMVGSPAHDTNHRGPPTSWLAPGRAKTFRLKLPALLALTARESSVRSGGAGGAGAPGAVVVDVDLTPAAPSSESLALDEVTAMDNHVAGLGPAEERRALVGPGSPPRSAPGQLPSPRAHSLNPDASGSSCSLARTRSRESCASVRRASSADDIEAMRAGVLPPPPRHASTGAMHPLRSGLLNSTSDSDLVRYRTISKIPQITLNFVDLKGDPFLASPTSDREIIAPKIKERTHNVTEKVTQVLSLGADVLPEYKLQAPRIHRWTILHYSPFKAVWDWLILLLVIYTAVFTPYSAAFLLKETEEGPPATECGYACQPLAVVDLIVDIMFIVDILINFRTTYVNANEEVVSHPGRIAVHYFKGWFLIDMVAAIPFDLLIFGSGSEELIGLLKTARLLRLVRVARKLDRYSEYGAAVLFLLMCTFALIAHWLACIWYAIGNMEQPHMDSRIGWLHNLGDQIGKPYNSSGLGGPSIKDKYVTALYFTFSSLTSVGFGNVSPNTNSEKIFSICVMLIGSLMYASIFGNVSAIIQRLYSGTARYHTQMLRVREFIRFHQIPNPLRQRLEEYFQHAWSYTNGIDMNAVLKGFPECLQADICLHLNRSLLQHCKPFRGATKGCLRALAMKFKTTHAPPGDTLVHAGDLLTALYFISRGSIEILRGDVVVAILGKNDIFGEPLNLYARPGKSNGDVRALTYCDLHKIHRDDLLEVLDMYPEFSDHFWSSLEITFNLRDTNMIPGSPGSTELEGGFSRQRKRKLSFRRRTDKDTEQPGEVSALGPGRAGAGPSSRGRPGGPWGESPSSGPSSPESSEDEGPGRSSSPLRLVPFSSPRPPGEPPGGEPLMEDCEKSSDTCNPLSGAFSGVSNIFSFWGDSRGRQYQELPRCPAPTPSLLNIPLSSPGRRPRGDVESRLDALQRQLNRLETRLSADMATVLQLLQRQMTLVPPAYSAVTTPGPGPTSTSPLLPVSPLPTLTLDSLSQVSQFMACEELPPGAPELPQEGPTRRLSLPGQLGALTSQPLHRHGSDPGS
property.name: inhibition at 60 min, 25 µM (%)

molecule: C[C@]1(O)CC[C@H](NS(=O)(=O)c2ccc(-c3ccc(Cl)cc3C#N)cc2)CC1 [HMC-C-01-A, reference compound]
property.name: inhibition at 60 min, 25 µM
units.text: %
experimental.result: 18

====

biological target: CYP2C9 (Homo sapiens (Human)); experiment: Human Cytochrome P450 Inhibition Assay (Bactosomes); type: in vitro ADME; conditions: recombinant Bactosomes, 10 minutes
Sequence (P11712 whole entry): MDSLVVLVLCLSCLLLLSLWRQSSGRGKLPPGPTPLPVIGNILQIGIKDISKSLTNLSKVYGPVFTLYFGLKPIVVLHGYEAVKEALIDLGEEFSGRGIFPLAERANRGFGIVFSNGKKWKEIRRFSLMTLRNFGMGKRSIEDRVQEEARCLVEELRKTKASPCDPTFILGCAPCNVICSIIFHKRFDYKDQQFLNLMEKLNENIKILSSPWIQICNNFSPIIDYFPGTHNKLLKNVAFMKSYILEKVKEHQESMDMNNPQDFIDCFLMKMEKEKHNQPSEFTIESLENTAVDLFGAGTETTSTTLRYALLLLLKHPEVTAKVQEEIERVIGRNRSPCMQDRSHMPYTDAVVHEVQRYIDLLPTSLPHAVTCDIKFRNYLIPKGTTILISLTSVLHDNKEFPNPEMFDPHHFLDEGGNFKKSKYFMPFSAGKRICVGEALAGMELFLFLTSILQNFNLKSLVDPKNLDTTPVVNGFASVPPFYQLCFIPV
pIC50: −log10 of the molar value.
property.name: pIC50

compound: CC1(O)CCC(NS(=O)(=O)c2ccc(-c3ccc(F)cc3F)cc2)CC1 (centres unmarked) [ABD899, reference compound]
relation.sign: =
experimental.result: 5.41
//
compound: CC(=O)N1CCC(CS(=O)(=O)c2ccc(-c3ccc(C#N)cc3Cl)cc2)CC1 [NASMP-05]
relation.sign: <
experimental.result: 4.30
//
compound: CC1(O)CCC(NS(=O)(=O)c2ccc(-c3ccc(Cl)cc3C#N)c(Cl)c2)CC1 (centres unmarked) [HMC-C-11-A, reference compound]
relation.sign: =
experimental.result: 5.57
//
compound: C[C@]1(O)CC[C@H](NS(=O)(=O)c2ccc(-c3ccc(Cl)cc3C#N)cc2)CC1 [HMC-C-01-A, reference compound]
relation.sign: =
experimental.result: 4.68
//
compound: CCC(=O)N1CCC(CS(=O)(=O)c2ccc(-c3ccc(F)cc3F)cc2)CC1 [NASMP-15]
relation.sign: =
experimental.result: 4.67

====

Here the recorded IC50 is given for each entry.
molecular target: CYP2C19 (Homo sapiens (Human), UniProt P33261); assay: Human Cytochrome P450 Inhibition Assay (Bactosomes); type: in vitro ADME; settings: recombinant Bactosomes, 10 minutes
Sequence (P33261 whole entry): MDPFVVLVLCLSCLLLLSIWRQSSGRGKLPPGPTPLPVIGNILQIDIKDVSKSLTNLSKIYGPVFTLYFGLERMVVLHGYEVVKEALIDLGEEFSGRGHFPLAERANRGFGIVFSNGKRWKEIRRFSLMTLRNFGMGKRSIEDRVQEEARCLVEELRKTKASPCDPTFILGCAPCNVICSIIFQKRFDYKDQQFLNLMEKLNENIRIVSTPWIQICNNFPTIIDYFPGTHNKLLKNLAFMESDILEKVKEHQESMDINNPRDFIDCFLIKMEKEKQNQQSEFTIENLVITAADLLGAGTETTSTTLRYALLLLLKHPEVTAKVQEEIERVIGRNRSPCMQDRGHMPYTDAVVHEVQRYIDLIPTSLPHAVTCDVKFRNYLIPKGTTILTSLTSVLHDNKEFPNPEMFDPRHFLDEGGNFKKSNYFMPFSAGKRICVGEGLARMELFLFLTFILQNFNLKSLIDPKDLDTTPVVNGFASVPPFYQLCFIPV
property.name: IC50

compound: CC1(O)CCC(NS(=O)(=O)c2ccc(-c3ccc(F)cc3F)cc2)CC1 (stereo not drawn) [ABD899, reference compound]
experimental.result: 7.3 µM
--
compound: CC(=O)N1CCC(CS(=O)(=O)c2ccc(-c3ccc(F)cc3F)cc2C(F)(F)F)CC1
experimental.result: > 50 µM
--
compound: CC1(O)CCC(NS(=O)(=O)c2ccc(-c3ccc(C#N)cc3Cl)cc2)CC1 (stereo not drawn) [HMC-C-09-A, reference compound]
experimental.result: > 50 µM
--
compound: CC(=O)N1CCC(CS(=O)(=O)c2ccc(-c3ccc(C#N)cc3Cl)cc2)CC1
experimental.result: > 50 µM
--
compound: CC(=O)N1CCC(CS(=O)(=O)c2ccc(-c3c(F)cccc3F)cc2)CC1
experimental.result: 17.8 µM
--
compound: C[C@]1(O)CC[C@H](NS(=O)(=O)c2ccc(-c3ccc(Cl)cc3C#N)cc2)CC1 [HMC-C-01-A, reference compound]
experimental.result: > 25 µM
--
compound: CCC(=O)N1CCC(CS(=O)(=O)c2ccc(-c3ccc(F)cc3F)cc2)CC1
experimental.result: > 50 µM
--
compound: CC(=O)N1CCC(CS(=O)(=O)c2ccc(-c3ccc(Cl)cc3C#N)cc2)CC1
experimental.result: > 50 µM
--
compound: CC(=O)N1CCC(CS(=O)(=O)c2ccc(-c3ccc(F)cc3F)cc2)CC1
experimental.result: > 50 µM

====

Here the recorded IC50 is given for each entry.
Target: UniProt:P08684
Sequence (P08684 whole entry): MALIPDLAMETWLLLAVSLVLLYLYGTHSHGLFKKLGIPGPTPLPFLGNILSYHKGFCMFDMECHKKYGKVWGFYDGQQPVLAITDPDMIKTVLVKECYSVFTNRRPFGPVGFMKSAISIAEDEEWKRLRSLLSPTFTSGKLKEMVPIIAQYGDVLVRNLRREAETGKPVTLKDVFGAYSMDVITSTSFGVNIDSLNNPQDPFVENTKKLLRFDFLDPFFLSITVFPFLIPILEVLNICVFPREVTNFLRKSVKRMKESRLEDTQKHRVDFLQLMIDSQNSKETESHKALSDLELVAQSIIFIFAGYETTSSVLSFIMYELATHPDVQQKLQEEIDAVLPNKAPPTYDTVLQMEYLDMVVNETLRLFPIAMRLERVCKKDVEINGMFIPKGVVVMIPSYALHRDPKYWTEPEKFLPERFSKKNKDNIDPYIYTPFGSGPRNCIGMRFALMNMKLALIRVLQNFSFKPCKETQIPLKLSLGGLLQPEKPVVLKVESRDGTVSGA
Assay: Human Cytochrome P450 Inhibition Assay (Bactosomes)
Type: in vitro ADME
Details: recombinant Bactosomes, 10 minutes
Procedure: The ability of test compounds to inhibit five of the most relevant cytochrome P450 enzymes was measured by determination of the activity of cytochrome P450 enzymes in recombinant cytochrome preparations, called Bactosomes (Cypex Ltd, Dundee, Scotland UK DD2 1 NH), in the presence of a specific probe substrate. Bactosomes are a highly efficient and cost-effective source of recombinant CYP450s which have a higher specific activity of enzyme compared to other sources, such as liver microsomes. […]
property.name: IC50

compound: CC1(O)CCC(NS(=O)(=O)c2ccc(-c3ccc(Cl)cc3C#N)c(Cl)c2)CC1 (stereo not shown) [HMC-C-11-A, reference compound]
measured.target: UniProt:P08684
experimental.result: 12 µM
//
compound: C[C@]1(O)CC[C@H](NS(=O)(=O)c2ccc(-c3ccc(Cl)cc3C#N)cc2)CC1 [HMC-C-01-A, reference compound]
measured.target: UniProt:P08684
experimental.result: > 25 µM
//
compound: CC(=O)N1CCC(CS(=O)(=O)c2ccc(-c3ccc(F)cc3F)cc2C(F)(F)F)CC1
measured.target: UniProt:P08684
experimental.result: > 50 µM
//
compound: CC(=O)N1CCC(CS(=O)(=O)c2ccc(-c3ccc(C(F)(F)F)cc3F)cc2)CC1
measured.target: UniProt:P08684
experimental.result: > 50 µM

====

experiment: Rodent Pharmacokinetics Studies; type: in vivo, rat; conditions: rat, plasma; male Han Wistar rats
property.name: half-life (h)

compound: CC(=O)N1CCC(CS(=O)(=O)c2ccc(-c3ccc(F)cc3F)cc2)CC1 [NASMP-01]
property.name: half-life
experimental.result: 6.6
--
compound: CC(=O)N1CCC(CS(=O)(=O)c2ccc(-c3ccc(F)cc3F)cc2C(F)(F)F)CC1 [NASMP-12]
property.name: half-life
experimental.result: 5.1
--
compound: CCC(=O)N1CCC(CS(=O)(=O)c2ccc(-c3ccc(F)cc3F)cc2)CC1 [NASMP-15]
property.name: half-life
experimental.result: 4.9
--
compound: CC(=O)N1CCC(CS(=O)(=O)c2ccc(-c3ccc(Cl)cc3C#N)cc2)CC1 [NASMP-06]
property.name: half-life
experimental.result: 3.3

====

experiment: Rodent Pharmacokinetics Studies; format: in vivo, rat; settings: male Han Wistar rats; 0.25 mg/kg intravenous

molecule: CC(=O)N1CCC(CS(=O)(=O)c2ccc(-c3ccc(F)cc3F)cc2)CC1 [NASMP-01]
i.v. AUC: 816 ng/mL/min

molecule: CCC(=O)N1CCC(CS(=O)(=O)c2ccc(-c3ccc(F)cc3F)cc2)CC1 [NASMP-15]
i.v. AUC: 282 ng/mL/min

molecule: CC(=O)N1CCC(CS(=O)(=O)c2ccc(-c3ccc(Cl)cc3C#N)cc2)CC1 [NASMP-06]
i.v. AUC: 349 ng/mL/min

molecule: CC1(O)CCC(NS(=O)(=O)c2ccc(-c3ccc(F)cc3F)cc2)CC1 (centres unmarked) [ABD899, reference compound]
i.v. AUC: 2133 ng/mL/min

molecule: CC(=O)N1CCC(CS(=O)(=O)c2ccc(-c3ccc(F)cc3F)cc2C(F)(F)F)CC1 [NASMP-12]
i.v. AUC: 581 ng/mL/min

====

Assay: Human Hepatocyte Stability
Format: in vitro ADME
Settings: pooled human hepatocytes, 1 μM, 60 minute incubation; read-out: Human t1/2
Protocol: Metabolic stability of test compounds was measured by determination of the rate of disappearance of the compound when incubated in the presence of human hepatocytes, a primary source of the most important enzymes (cytochrome P450s) involved in drug metabolism. […] Human hepatocytes were obtained from a commercial source and viability was assessed using a trypan blue solution prior to use. […] Each compound was incubated for 0, 5, 15, 30, 45, or 60 minutes. […] The aliquots were analysed using LC-MS/MS. […]
property.name: half-life at 1 μM

compound: CC(=O)N1CCC(C(C)(C)S(=O)(=O)c2ccc(-c3ccc(F)cc3F)cc2)CC1 [NASMP-18]
experimental.result: 5.87 h
//
compound: CC(=O)N1CCC(CS(=O)(=O)c2ccc(-c3ccc(Cl)cc3C#N)cc2)CC1 [NASMP-06]
experimental.result: > 1 h
//
compound: CC(=O)N1CCC(CS(=O)(=O)c2ccc(-c3cc(F)ccc3F)cc2)CC1 [NASMP-03]
experimental.result: > 7.67 h
//
compound: CCC(=O)N1CCC(CS(=O)(=O)c2ccc(-c3ccc(F)cc3F)cc2)CC1 [NASMP-15]
experimental.result: > 1 h
//
compound: CC(=O)N1CCC(CS(=O)(=O)c2ccc(-c3ncc(F)cc3F)c(F)c2)CC1 [NASMP-11]
experimental.result: > 1 h
//
compound: CC(=O)N1CCC(C(F)(F)S(=O)(=O)c2ccc(-c3ccc(F)cc3F)cc2)CC1 [NASMP-19]
experimental.result: 1.92 h
//
compound: CC(=O)N1CCC(CS(=O)(=O)c2ccc(-c3ccc(F)cc3F)cc2)CC1 [NASMP-01]
experimental.result: > 7.67 h
//
compound: CC(=O)N1CCC(C)(CS(=O)(=O)c2ccc(-c3ccc(Cl)cc3C#N)cc2)CC1 [NASMP-16]
experimental.result: > 1 h
//
compound: CC(=O)N1CCC(CS(=O)(=O)c2ccc(-c3c(F)cccc3F)cc2)CC1 [NASMP-09]
experimental.result: > 6.88 h
//
compound: CN(C)C(=O)N1CCC(CS(=O)(=O)c2ccc(-c3ccc(F)cc3F)cc2)CC1 [NASMP-14]
experimental.result: 0.97 h
//
compound: CC(=O)N1CCC(C2(S(=O)(=O)c3ccc(-c4ccc(F)cc4F)cc3)CC2)CC1 [NASMP-21]
experimental.result: 1.74 h
//
compound: CC(=O)N1CCC(CS(=O)(=O)c2ccc(-c3cc(F)cc(F)c3)cc2)CC1 [NASMP-20]
experimental.result: > 7.67 h
//
compound: CC(=O)N1CCC(CS(=O)(=O)c2ccc(-c3ccc(F)c(F)c3)cc2)CC1 [NASMP-02]
experimental.result: > 7.67 h
//
compound: CC(=O)N1CCC(CS(=O)(=O)c2ccc(-c3ccc(C(F)(F)F)cc3F)cc2)CC1 [NASMP-07]
experimental.result: > 1 h

Measured values drawn from patent US12162836B2 for this set.
